Tested on: CAMK2G
Settings: concentration: 1 μM, replicates: in singlicate; n = 1;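 note: KINOMEscan kinase panel screen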
endpointName: %Inh

Request: Find the recorded %Inh belonging to Cc1cccc(-c2nc(Nc3ccc4ncsc4c3)c3ccccc3n2)n1 and report it.
Response: 9%

Request: Find the recorded %Inh belonging to Cc1cn2c(=O)cc(N3CCOCC3)nc2n1Cc1cccc(Cl)c1Cl and report it.
Response: 32%

Request: Find the recorded %Inh belonging to Nc1nc(-c2ccc3c(N)n[nH]c3c2)cc(N2CCCC2)n1 and report it.
Response: 21%

Request: Find the recorded %Inh belonging to NS(=O)(=O)c1cccc(-c2ccc3ncc(N4CCOCC4)nc3c2)c1 and report it.
Response: 17%

Request: Find the recorded %Inh belonging to CC(C)Oc1ccc2c(-c3ccnc(Nc4ccc(N5CCN(C)CC5)cc4)n3)cnn2n1 and report it.
Response: 48%

---

Test system: ROS1
Conditions: concentration: 1 μM, replicates: in singlicate; n = 1
endpointName: %Inh (%)
Give the quantity in %, number only.

Request: Find the recorded %Inh belonging to COc1ccc(CNC(=O)NC2CCN(c3ccnc(Nc4ccc(OC)cc4)n3)C2)cc1 (centres unmarked) [GSK1379727] and report it.
Response: 0

Request: Find the recorded %Inh belonging to CSc1ccc(-c2cc3ncnc(SCC(=O)O)c3s2)cc1 and report it.
Response: 3

Request: Find the recorded %Inh belonging to Cc1c2ccc(N(C)c3ccnc(Nc4cccc(S(N)(=O)=O)c4)n3)cc2nn1Cc1ccccc1.Cl.Cl [GW787226] and report it.
Response: 62

Request: Find the recorded %Inh belonging to COc1ccc(Nc2nccc(N3CCC(NC(=O)Nc4cccc(C(C)=O)c4)C3)n2)cc1 (centres unmarked) [GSK1379731] and report it.
Response: 4

Request: Find the recorded %Inh belonging to Fc1ccc(-c2nn3c(OCC(F)(F)F)cccc3c2-c2ccncc2)cc1 [GW514784] and report it.
Response: 13

Request: Find the recorded %Inh belonging to NS(=O)(=O)c1cccc(-c2ccc3ncc(N4CCOCC4)nc3c2)c1 [GSK1535721] and report it.
Response: 2

Request: Find the recorded %Inh belonging to O=C(Nc1cccc(-c2nn3ncccc3c2-c2ccnc(Nc3cccc(C(F)(F)F)c3)n2)c1)c1c(F)cccc1F [GSK299495] and report it.
Response: 0

Request: Find the recorded %Inh belonging to COc1ccc(S(=O)(=O)NC2CCN(c3cc(C)nc(Nc4cccc(C#N)c4)n3)CC2)cc1.O=C(O)C(F)(F)F [GSK1653539] and report it.
Response: 16

---

System: VEGFR2
Construct: gene KDR
Conditions: concentration: 1 μM, replicates: in singlicate; n = 1
endpointName: %Inh (%)
Give the quantity in %, number only.

Request: Param readout = %Inh; param system = VEGFR2; param query = O=c1cc(N2CCOCC2)nc2n(Cc3cccc(F)c3)ccn12 ; response: value
Response: 0

Request: Param readout = %Inh; param system = VEGFR2; param query = COc1ccc(CNC(=O)NC2CCN(c3ccnc(Nc4ccc(OC)cc4)n3)C2)cc1 (stereo not drawn) ; response: value
Response: 0

Request: Param readout = %Inh; param system = VEGFR2; param query = CC(C)(C)n1cnc2c(N)ncnc21 ; response: value
Response: 0

Request: Param readout = %Inh; param system = VEGFR2; param query = Fc1ccc(-c2ncn(CCCN3CCOCC3)c2-c2ccccn2)cc1 ; response: value
Response: 0

Request: Param readout = %Inh; param system = VEGFR2; param query = COc1ccc(Nc2nccc(N3CCC(NC(=O)Nc4cc(C)ccc4C)C3)n2)cc1 (stereo not drawn) ; response: value
Response: 0

Request: Param readout = %Inh; param system = VEGFR2; param query = Cc1c2ccc(N(C)c3ccnc(Nc4cccc(S(N)(=O)=O)c4)n3)cc2nn1Cc1ccccc1.Cl.Cl ; response: value
Response: 99.2

Request: Param readout = %Inh; param system = VEGFR2; param query = CCn1cnc2c(N)ncnc21 ; response: value
Response: 0

Request: Param readout = %Inh; param system = VEGFR2; param query = CCc1nc(-c2cccc(C)c2)c(-c2ccnc(NCc3ccccc3)c2)s1 ; response: value
Response: 0

Request: Param readout = %Inh; param system = VEGFR2; param query = O=C(NOCC1CC1)c1ccc(F)c(F)c1Nc1ccc(I)cc1Cl ; response: value
Response: 0

Request: Param readout = %Inh; param system = VEGFR2; param query = CN1c2ccc(CNc3ccc(F)cc3)cc2-c2c(cnn2C)S1(=O)=O ; response: value
Response: 0

Request: Param readout = %Inh; param system = VEGFR2; param query = O=C(NCCNc1ccnc(Nc2ccc(F)cc2)n1)c1cc2ccccc2s1 ; response: value
Response: 0

Request: Param readout = %Inh; param system = VEGFR2; param query = CN1c2ccc(NCc3ccc(F)cc3)cc2-c2c(cnn2C)S1(=O)=O ; response: value
Response: 4

Request: Param readout = %Inh; param system = VEGFR2; param query = Cc1ccc(NC(=O)c2ccnc(N3CCN(C)CC3)c2)cc1-c1ccc(C(=O)NCC2CC2)cc1 ; response: value
Response: 0

Request: Param readout = %Inh; param system = VEGFR2; param query = NS(=O)(=O)c1cccc(-c2ccc3ncc(N4CCOCC4)nc3c2)c1 ; response: value
Response: 10

Request: Param readout = %Inh; param system = VEGFR2; param query = Cc1nnc(-c2ccc(C)c(-c3ccc(C(=O)Nc4ccc(NS(C)(=O)=O)cc4)cc3)c2)o1 ; response: value
Response: 9

Request: Param readout = %Inh; param system = VEGFR2; param query = CN(C1=C(c2ccccc2)C(=O)NC1=O)c1ccccc1 ; response: value
Response: 12

Request: Param readout = %Inh; param system = VEGFR2; param query = O=C1NC(=O)C(N2CCc3ccccc32)=C1c1cccc(Cl)c1 ; response: value
Response: 6

Request: Param readout = %Inh; param system = VEGFR2; param query = O=c1cc(N2CCOCC2)nc2n(Cc3cccc4ccccc34)ccn12 ; response: value
Response: 0

Request: Param readout = %Inh; param system = VEGFR2; param query = CCc1ccnc(/C=C/c2n[nH]c3cc(Sc4ccccc4C(=O)NC)ccc23)c1 ; response: value
Response: 99.9

Request: Param readout = %Inh; param system = VEGFR2; param query = CSc1ccc(-c2cc3ncnc(SCC(=O)O)c3s2)cc1 ; response: value
Response: 0

Request: Param readout = %Inh; param system = VEGFR2; param query = Cl.Oc1cccc(Nc2ccnc3cc(-c4ccncc4)ccc23)c1 ; response: value
Response: 95.4
